tested target: amino acid substituted PPO enzyme R128A, F420L (Amaranthus tuberculatus, UniProt Q0NZW9, F420L/R128A)
experiment summary: biochemical
measured property: pIC50
Lab note: report pIC50 as minus log10 of the concentration in molar units, number only.

Field pIC50 (entry C#CCN1C(=O)C(F)(F)Oc2cc(F)c(-n3c(=O)n(C)c(=S)n(C)c3=O)cc21 ) reads 7.62

----------
tested target: amino acid substituted PPO enzyme L397D (Amaranthus tuberculatus, UniProt Q0NZW9, L397D)
experiment summary: biochemical
measured property: IC50 (nM)
Just the number in nM, nothing appended.

Given item C#CCN1C(=O)C(F)(F)Oc2cc(F)c(-n3c(=O)n(C)c(=S)n(C)c3=O)cc21 , the value recorded as its IC50 is 0.272

----------
tested target: amino acid substituted PPO enzyme dG210 (Amaranthus tuberculatus, UniProt Q0NZW9, DEL211-211, form not given)
measured property: pIC50
Scale for pIC50: -log10 of concentration given in mol/L; no unit attached.

The compound C#CCN1C(=O)C(F)(F)Oc2cc(F)c(-n3c(=O)n(C)c(=S)n(C)c3=O)cc21 [benzoxazinone 1.a.35] showed pIC50 equal to 8.67

----------
tested target: amino acid substituted PPO enzyme F420I (Amaranthus tuberculatus, UniProt Q0NZW9, F420I)
experiment summary: biochemical
measured property: pIC50
Scale: negative log10 of molar concentration, which is what pIC50 denotes.

The measured pIC50 associated with C#CCN1C(=O)C(F)(F)Oc2cc(F)c(-n3c(=O)n(C)c(=S)n(C)c3=O)cc21 reads 9.31

----------
tested target: amino acid substituted PPO enzyme R128A, F420M (Amaranthus tuberculatus, UniProt Q0NZW9, F420M/R128A)
experiment summary: biochemical
measured property: IC50 (nM)
A number alone suffices; assume nM.

# molecule C#CCN1C(=O)C(F)(F)Oc2cc(F)c(-n3c(=O)n(C)c(=S)n(C)c3=O)cc21 ; its IC50 = 6.24
